Target: PDZ protein (GST-PDZ fusion) (Homo sapiens, UniProt Q8NI35)
Construct: made in house; host or cells: E. coli (DH5alpha, BL21 or JM109)
Sequence (Q8NI35 whole entry, the tested form may be a part): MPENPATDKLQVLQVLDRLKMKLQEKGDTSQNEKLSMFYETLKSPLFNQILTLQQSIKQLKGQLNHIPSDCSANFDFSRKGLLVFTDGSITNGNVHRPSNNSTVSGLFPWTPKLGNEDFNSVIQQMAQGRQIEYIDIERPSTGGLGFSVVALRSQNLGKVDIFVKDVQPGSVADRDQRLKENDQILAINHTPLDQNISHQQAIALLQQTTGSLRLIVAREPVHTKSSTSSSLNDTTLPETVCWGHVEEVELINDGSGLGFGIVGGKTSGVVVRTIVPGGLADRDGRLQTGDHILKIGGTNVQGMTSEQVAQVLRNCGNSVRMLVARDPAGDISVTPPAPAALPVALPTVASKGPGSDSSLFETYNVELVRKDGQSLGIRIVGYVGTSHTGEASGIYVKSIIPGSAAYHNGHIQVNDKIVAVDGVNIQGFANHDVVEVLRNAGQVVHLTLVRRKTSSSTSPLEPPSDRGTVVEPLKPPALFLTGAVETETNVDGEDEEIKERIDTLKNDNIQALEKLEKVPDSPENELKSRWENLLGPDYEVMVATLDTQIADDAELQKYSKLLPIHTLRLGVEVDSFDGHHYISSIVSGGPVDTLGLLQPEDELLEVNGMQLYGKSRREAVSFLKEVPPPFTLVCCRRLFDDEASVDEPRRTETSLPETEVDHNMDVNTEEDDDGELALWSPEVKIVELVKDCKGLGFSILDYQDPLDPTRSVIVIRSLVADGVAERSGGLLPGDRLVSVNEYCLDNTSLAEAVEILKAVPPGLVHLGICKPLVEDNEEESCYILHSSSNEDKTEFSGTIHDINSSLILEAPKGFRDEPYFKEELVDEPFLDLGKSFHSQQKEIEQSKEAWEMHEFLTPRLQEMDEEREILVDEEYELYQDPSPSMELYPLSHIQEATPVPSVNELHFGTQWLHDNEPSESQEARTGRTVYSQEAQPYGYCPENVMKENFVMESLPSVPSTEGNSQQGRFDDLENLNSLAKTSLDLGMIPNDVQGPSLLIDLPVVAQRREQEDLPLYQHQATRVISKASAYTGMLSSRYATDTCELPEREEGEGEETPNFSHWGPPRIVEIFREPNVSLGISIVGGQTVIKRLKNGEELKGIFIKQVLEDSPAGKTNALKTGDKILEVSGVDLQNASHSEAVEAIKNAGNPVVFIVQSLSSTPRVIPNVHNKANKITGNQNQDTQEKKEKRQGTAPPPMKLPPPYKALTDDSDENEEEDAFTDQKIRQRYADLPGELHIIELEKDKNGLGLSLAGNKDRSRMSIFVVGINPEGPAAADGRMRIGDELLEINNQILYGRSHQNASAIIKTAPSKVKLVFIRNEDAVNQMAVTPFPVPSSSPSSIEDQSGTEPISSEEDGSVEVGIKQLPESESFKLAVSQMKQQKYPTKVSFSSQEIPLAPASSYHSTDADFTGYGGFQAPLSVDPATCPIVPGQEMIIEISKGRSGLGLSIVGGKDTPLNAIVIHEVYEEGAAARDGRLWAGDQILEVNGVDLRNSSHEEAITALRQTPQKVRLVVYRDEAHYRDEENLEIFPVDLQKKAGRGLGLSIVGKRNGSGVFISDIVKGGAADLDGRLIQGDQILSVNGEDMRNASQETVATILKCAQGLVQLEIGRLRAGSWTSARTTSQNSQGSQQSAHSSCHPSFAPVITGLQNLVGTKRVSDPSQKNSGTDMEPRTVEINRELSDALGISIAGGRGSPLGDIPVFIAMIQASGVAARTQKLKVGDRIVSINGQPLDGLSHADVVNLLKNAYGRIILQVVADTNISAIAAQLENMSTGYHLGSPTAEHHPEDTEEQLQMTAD
Assay: G' assay (10 uM PL peptide), results of TABLE 7 and TABLE 12
Type: binding
Conditions: PDZ INADL, PDZ Domain 8
Ends that are not written are not given here. * marks the point of attachment. Biotin = O=C1N[C@H]2[C@H](CS[C@H]2CCCCC(=O)*)N1
Property Label: Classification

ENLELPVNPSSVVSERISSV (Biotin-ENLELPVNPSSVVSERISSV) [serotonin receptor 5-HT-2C] = 1 (A450 nm 0-1)
RNIEEVYVGGKQVVPFSSSV (Biotin-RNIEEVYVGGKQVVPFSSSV) [Nedasin (s-form)] = 1 (A450 nm 0-1)
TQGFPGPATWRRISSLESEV = 1 (A450 nm 0-1)
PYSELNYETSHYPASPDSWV (Biotin-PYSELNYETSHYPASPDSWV) [catenin - delta 2] = 2 (A450 nm 1-2)

As a next step, examine the sequence that follows.
Could you share which Classification value was measured for INSVGSTASSSQPLLVHDDV (Biotin-INSVGSTASSSQPLLVHDDV) [c-kit receptor] ?
1 (A450 nm 0-1)
